test system: DR5; design: species or system human; settings: read-out: Binding Activity DR5, IC50
recorded.endpoint: IC50
Please state the value followed by its unit.

// CC(C)C[C@H](NC(=O)[C@@H](NC(=O)[C@H](CCCCN)NC(=O)[C@H](C)NC(=O)[C@H](C)NC(=O)[C@@H](NC(=O)[C@H](CC1CCCCC1)NC(=O)[C@H](CCCCN)NC(=O)[C@@H](C)N)C(C)C)[C@@H](C)O)C(=O)N[C@@H](CCCCN)C(=O)N[C@@H](C)C(=O)N[C@@H](C)C(=O)N[C@H](C)C(N)=O [965.14] : IC50 value = 3.4 nM

The reported IC50 of the compound CC(C)C[C@H](NC(=O)[C@@H](NC(=O)[C@H](Cc1ccc(O)cc1)NC(=O)[C@H](C)NC(=O)[C@H](C)NC(=O)[C@@H](NC(=O)[C@H](CC1CCCCC1)NC(=O)[C@H](CCCCN)NC(=O)[C@@H](C)N)C(C)C)[C@@H](C)O)C(=O)N[C@@H](CCCCN)C(=O)N[C@@H](C)C(=O)N[C@@H](C)C(=O)N[C@H](C)C(N)=O [965.09] was 5.4 nM

Measured IC50 of CC(C)C[C@H](NC(=O)[C@@H](NC(=O)[C@H](Cc1c[nH]cn1)NC(=O)[C@H](C)NC(=O)[C@H](C)NC(=O)[C@@H](NC(=O)[C@H](CC1CCCCC1)NC(=O)[C@H](CCCCN)NC(=O)[C@@H](C)N)C(C)C)[C@@H](C)O)C(=O)N[C@@H](CCCCN)C(=O)N[C@@H](C)C(=O)N[C@@H](C)C(=O)N[C@H](C)C(N)=O [965.15] : 29.9 nM

Form: compound = CC(C)C[C@H](NC(=O)[C@@H](NC(=O)[C@H](Cc1c[nH]c2ccccc12)NC(=O)[C@H](C)NC(=O)[C@H](C)NC(=O)[C@@H](NC(=O)[C@H](CC1CCCCC1)NC(=O)[C@H](CCCCN)NC(=O)[C@@H](C)N)C(C)C)[C@@H](C)O)C(=O)N[C@@H](CCCCN)C(=O)N[C@@H](C)C(=O)N[C@@H](C)C(=O)N[C@H](C)C(N)=O [965.10] ; IC50 = 11.1 nM

// CC(C)C[C@H](NC(=O)[C@@H](NC(=O)[C@H](CC(N)=O)NC(=O)[C@H](C)NC(=O)[C@H](C)NC(=O)[C@@H](NC(=O)[C@H](CC1CCCCC1)NC(=O)[C@H](CCCCN)NC(=O)[C@@H](C)N)C(C)C)[C@@H](C)O)C(=O)N[C@@H](CCCCN)C(=O)N[C@@H](C)C(=O)N[C@@H](C)C(=O)N[C@H](C)C(N)=O [965.08] : IC50 value = 8 nM

Record CC(C)C[C@H](NC(=O)[C@@H](NC(=O)[C@H](C)NC(=O)[C@H](C)NC(=O)[C@H](C)NC(=O)[C@@H](NC(=O)[C@H](CC1CCCCC1)NC(=O)[C@H](CCCCN)NC(=O)[C@@H](C)N)C(C)C)[C@@H](C)O)C(=O)N[C@@H](CCCCN)C(=O)N[C@@H](C)C(=O)N[C@@H](C)C(=O)N[C@H](C)C(N)=O [965.16] . Reported IC50: 16.7 nM
